# METHOD_NOTES: MTT assay, cell viability rate of 3T3-L1 mature adipocytes
# Format: cell-based
# CONDITIONS: mouse, 3T3-L1 mature adipocytes (differentiated from preadipocytes), 3T3-L1 mature adipocytes, drug 40 ppm, 0.2% DMSO, 24 hours, relative to Control, mean ± spread of 3 replicates; read-out: Average viability (%)
REPORTED_METRIC: viability at 24 h, 40 ppm (%)
The reply should be a number in %, with the unit left off.

Note down viability at 24 h, 40 ppm recorded for "Oc1ccc(C=Cc2cc(O)cc(O)c2)cc1"
43.4

---

# METHOD_NOTES: MTT assay, cell viability rate of 3T3-L1 mature adipocytes
# Type: cell-based
# CONDITIONS: mouse, Cell viability rate, Replicate 1
REPORTED_METRIC: viability at 24 h, 50 ppm (%)
Output spec: scalar in %, unitless text.

Output viability at 24 h, 50 ppm of "Oc1cc(O)cc(/C=C/c2ccc(O)cc2O)c1"
43.2

Identify viability at 24 h, 50 ppm associated with the molecule "CC(=O)Oc1ccc(/C=C/c2cc(OC(C)=O)cc(OC(C)=O)c2)cc1"
73.2

---

Assignment: determine reported viability at 24 h, 50 ppm for the given molecules.
# METHOD_NOTES: MTT assay, cell viability rate of 3T3-L1 mature adipocytes
# Type: cell-based
# CONDITIONS: mouse, Cell viability rate, Replicate 2
Output spec: scalar in %, unitless text.

Determine from records and report viability at 24 h, 50 ppm for Oc1cc(O)cc(/C=C/c2ccc(O)cc2O)c1 [Oxyresveratrol]
38

Specify reported viability at 24 h, 50 ppm for the molecule shown: CC(=O)Oc1ccc(/C=C/c2cc(OC(C)=O)cc(OC(C)=O)c2)cc1 [TriacetyIR]
64

---

# METHOD_NOTES: MTT assay, cell viability rate of 3T3-L1 mature adipocytes
# Format: cell-based
# CONDITIONS: mouse, 3T3-L1 mature adipocytes (differentiated from preadipocytes), 3T3-L1 mature adipocytes, drug 50 ppm, 0.2% DMSO, 24 hours, mean of 4 replicates; read-out: Cell viability rate, Mean
REPORTED_METRIC: viability at 24 h, 50 ppm

Look up and report measured viability at 24 h, 50 ppm for this entry: COc1ccc(/C=C/c2cc(O)cc(O)c2)cc1O [IM05]
72.4%

---

# METHOD_NOTES: MTT assay, cell viability rate of 3T3-L1 mature adipocytes
# Type: cell-based
# CONDITIONS: mouse, Average viability (%)
# Description: 3T3-L1 cell subculture medium (preadipocytes): DMEM+10% BCS+1% P/S. […] MTT assay: After 3T3-L1 cells were induced to differentiate into mature adipocytes for 8 days, Resveratrol or Oxyresveratrol was added for treatment for 24 hours, then the culture medium was replaced with MTT reagent (working concentration: 0.5 mg/mL), and cultured in a 37° C. incubator for 2 hours. […] The background value OD 630 nm was subtracted from the measured value OD 570 nm in each group to obtain the final absorbance value. […]
REPORTED_METRIC: viability at 24 h, 40 ppm (%)
Give just the numeric value; % need not be written.

Entry Oc1cc(O)cc(/C=C/c2ccc(O)cc2O)c1 [Oxyresveratrol] needs its viability at 24 h, 40 ppm filled in; supply it.
28.6

---

# METHOD_NOTES: MTT assay, cell viability rate of 3T3-L1 mature adipocytes
# Type: cell-based
# CONDITIONS: mouse, Average viability (%)
REPORTED_METRIC: viability at 24 h, 60 ppm (%)
Record the value in %, omitting the unit from your answer.

Find the measured viability at 24 h, 60 ppm of "Oc1cc(O)cc(/C=C/c2ccc(O)cc2O)c1" and report it.
12.5
